biological target: Group IIA purified human synovial sPLA2 (Homo sapiens, UniProt P14555); construct: purchased Cayman, USA; assay: In vitro inhibition of purified human synovial sPLA2, 3H-labelled E. coli membranes; type: biochemical; conditions: 3H-labelled E. coli membranes as substrate
Sequence (P14555 21-144): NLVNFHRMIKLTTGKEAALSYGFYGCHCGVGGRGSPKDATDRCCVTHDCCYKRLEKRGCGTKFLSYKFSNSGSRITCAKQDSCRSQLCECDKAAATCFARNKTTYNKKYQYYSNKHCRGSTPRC
Where a SMILES comes first, the peptide text is derived from it.
Value kind: IC50 (µM)

CC[C@H](C)[C@H](NC(=O)[C@H](CC(=O)O)NC(=O)[C@@H](NC(=O)[C@@H](N)CCCNC(=N)N)C(C)C)C(=O)N[C@@H](Cc1c[nH]cn1)C(=O)N[C@H](C(=O)N[C@@H](Cc1c[nH]c2ccccc12)C(=O)N[C@@H](CC(=O)O)C(=O)NCC(=O)N[C@H](C(=O)O)C(C)C)C(C)C [PIP (58–67)] (H-RVDIHVWDGV-OH; N-terminus and C-terminus assumed)    3.67
